Tested Target: ErbB4 (Homo sapiens)
Sequence (Q15303 26-1308 limits assumed): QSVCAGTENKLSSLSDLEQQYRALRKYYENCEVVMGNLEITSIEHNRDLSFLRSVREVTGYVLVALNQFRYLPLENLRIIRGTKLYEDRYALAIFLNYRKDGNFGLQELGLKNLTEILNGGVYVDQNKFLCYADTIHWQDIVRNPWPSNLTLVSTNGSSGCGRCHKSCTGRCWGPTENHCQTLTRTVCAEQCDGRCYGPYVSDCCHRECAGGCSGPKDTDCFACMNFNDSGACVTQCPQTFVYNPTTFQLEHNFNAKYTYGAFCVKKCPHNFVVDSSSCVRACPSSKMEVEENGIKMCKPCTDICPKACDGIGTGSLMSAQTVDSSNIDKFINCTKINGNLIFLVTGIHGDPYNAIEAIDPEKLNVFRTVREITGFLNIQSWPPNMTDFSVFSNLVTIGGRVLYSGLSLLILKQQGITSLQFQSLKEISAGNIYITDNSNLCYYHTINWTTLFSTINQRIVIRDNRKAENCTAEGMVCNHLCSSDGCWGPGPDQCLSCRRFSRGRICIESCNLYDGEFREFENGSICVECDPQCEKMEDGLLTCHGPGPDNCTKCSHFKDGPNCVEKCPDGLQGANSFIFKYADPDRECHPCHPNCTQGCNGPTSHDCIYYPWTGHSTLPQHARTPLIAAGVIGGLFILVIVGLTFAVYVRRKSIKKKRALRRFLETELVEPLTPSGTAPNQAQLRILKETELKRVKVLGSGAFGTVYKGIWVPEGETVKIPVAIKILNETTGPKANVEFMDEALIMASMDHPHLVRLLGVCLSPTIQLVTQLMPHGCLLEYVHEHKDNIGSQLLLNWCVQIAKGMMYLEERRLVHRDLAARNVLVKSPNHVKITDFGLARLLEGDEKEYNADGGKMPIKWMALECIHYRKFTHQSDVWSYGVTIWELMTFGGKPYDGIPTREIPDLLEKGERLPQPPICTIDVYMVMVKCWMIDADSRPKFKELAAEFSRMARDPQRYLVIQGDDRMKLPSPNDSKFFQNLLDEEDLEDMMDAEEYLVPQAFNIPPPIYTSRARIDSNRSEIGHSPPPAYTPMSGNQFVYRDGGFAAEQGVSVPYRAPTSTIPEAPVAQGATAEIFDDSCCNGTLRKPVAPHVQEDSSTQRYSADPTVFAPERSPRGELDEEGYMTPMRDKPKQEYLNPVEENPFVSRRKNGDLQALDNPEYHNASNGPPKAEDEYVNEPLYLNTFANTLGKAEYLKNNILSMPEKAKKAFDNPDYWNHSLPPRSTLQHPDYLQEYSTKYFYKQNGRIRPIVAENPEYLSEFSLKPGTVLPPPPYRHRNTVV
Procedure Text: ELISA-based erbB kinase assay (ErbB4)
Settings: GST-erbB4 cytoplasmic fusion protein, 20 uM ATP, poly-Glu-Tyr substrate
pIC50: −log10 of the molar value.
Quantity Name: pIC50

Example results:
{"columns": ["Compound", "Measurement"],
 "data": [
  ["O=C(/C=C/CN1CCCCC1)Nc1cc2c(Nc3ccc(F)c(Cl)c3)ncnc2cc1OCCCN1CCOCC1 [Example No. 7]", 7.21],
  ["COc1cc2ncnc(Nc3ccc(F)c(Cl)c3)c2cc1NC(=O)/C=C/CN1CCCCCC1 [Example No. 10]", 7.38],
  ["COc1cc2ncnc(Nc3ccc(F)c(Cl)c3)c2cc1NC(=O)/C=C/CN1CCCC(F)C1 (stereo not drawn) [Example No. 8]", 6.63],
  ["COc1cc2ncnc(Nc3ccc(F)c(Cl)c3)c2cc1NC(=O)/C=C/CN1CCC(F)CC1 [Example No. 9]", 6.83]
]}

(1) O=C(/C=C/CN1CCCCC1)Nc1cc2c(Nc3ccc(F)c(Cl)c3)ncnc2cc1OCC(F)F [Example No. 6]
(2) O=C(/C=C/CN1CCCCC1)Nc1cc2c(Nc3ccc(F)c(Cl)c3)ncnc2cc1OCCF [Example No. 1]
Query: For the two items 1 and 2 , which reports the higher pIC50 value? Answer format: the label of the selected item.
Reply: 2
(2: 7.11, 1: 6.81)
